B1: EHEE_rd2_0191 (parent)
chain: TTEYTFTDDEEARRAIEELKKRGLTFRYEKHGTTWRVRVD

variants of: B1; assay: folding stability dG (cDNA display proteolysis); higher = more stable; conditions: PBS, room temperature
Measurement name: folding stability dG

- TTEYTFTDDEEARFAIEELKKRGLTFRYEKHGTTWRVRVD [R14F]: 1.64 kcal/mol
- TTEYTFTDDEEARRAIEELKKRGLTFRYFKHGTTWRVRVD [E29F]: 2.35 kcal/mol
- TTEYTTTDDEEARRAIEELKKRGLTFRYEKHGTTWRVRVD [F6T]: -0.433 kcal/mol
- TTEYTFTDDEEARRAIEELKKRGLTFRYEKHGTTWRIRVD [V37I]: 2.67 kcal/mol
- TTEYTFTDDEEARRVIEELKKRGLTFRYEKHGTTWRVRVD [A15V]: 2.36 kcal/mol
- TTEYTFTDDEEARRAIERLKKRGLTFRYEKHGTTWRVRVD [E18R]: 1.7 kcal/mol
- TTEYTFTDDEEARRAIEELKKRGLTFRYEKHGTVWRVRVD [T34V]: 2.42 kcal/mol
- TTECTFTDDEEARRAIEELKKRGLTFRYEKHGTTWRVRVD [Y4C]: 2.79 kcal/mol
- TTEYTFTDDEEARRAIEMLKKRGLTFRYEKHGTTWRVRVD [E18M]: 2.11 kcal/mol
- TQEYTFTDDEEARRAIEELKKRGLTFRYEKHGTTWRVRVD [T2Q]: 2 kcal/mol
- TTEYTFTDDEEARRQIEELKKRGLTFRYEKHGTTWRVRVD [A15Q]: 1.29 kcal/mol
- TTEYTFTDDEEARRAIEELKKRHLTFRYEKHGTTWRVRVD [G23H]: 1.26 kcal/mol
- TTEYTFTDDEEARRAIEELKKRGLTFRYEKHSTTWRVRVD [G32S]: 0.389 kcal/mol
- TTEYTFTDDEEARRAIEELKKRGLTFAYEKHGTTWRVRVD [R27A]: 2.1 kcal/mol
- TWEYTFTDDEEARRAIEELKKRGLTFRYEKHGTTWRVRVD [T2W]: 2.62 kcal/mol
- TTEYTFTDDEEARRAIEELKKIGLTFRYEKHGTTWRVRVD [R22I]: 1.52 kcal/mol
- TTEYTFTDDEEARRAIEELKKRGLTFRFEKHGTTWRVRVD [Y28F]: 2.06 kcal/mol
- TTEYTFTDDEEARRWIEELKKRGLTFRYEKHGTTWRVRVD [A15W]: 2.9 kcal/mol
- TTENTFTDDEEARRAIEELKKRGLTFRYEKHGTTWRVRVD [Y4N]: -0.571 kcal/mol
- TTEYTFTDDEEARRAIEDLKKRGLTFRYEKHGTTWRVRVD [E18D]: 2.03 kcal/mol
- TTEYTFTDDEEARRAIEELKKRGLTFRYDKHGTTWRVRVD [E29D]: 1.7 kcal/mol
- TTEYTFTDDKEARRAIEELKKRGLTFRYEKHGTTWRVRVD [E10K]: 1.98 kcal/mol
- TTCYTFTDDEEARRAIEELKKRGLTFRYEKHGTTWRVRVD [E3C]: 2.81 kcal/mol
- TTEYTFTDDEEARRAIEELKKRGLTFRYEKHGTHWRVRVD [T34H]: 1.74 kcal/mol
- TTEYTFTDDEEARRAIEELKKTGLTFRYEKHGTTWRVRVD [R22T]: 1.56 kcal/mol
- TTEYTFTDDEEARRAIEILKKRGLTFRYEKHGTTWRVRVD [E18I]: 2.15 kcal/mol
- TTEYTFTDDEEARRAINELKKRGLTFRYEKHGTTWRVRVD [E17N]: 2.02 kcal/mol
- TVEYTFTDDEEARRAIEELKKRGLTFRYEKHGTTWRVRVD [T2V]: 2.4 kcal/mol
- TTEYTFTDDEEARRAIEELKKRGLTFRYEKHMTTWRVRVD [G32M]: 0.592 kcal/mol
- TTEYTFTDDEEARRAIEELKKRGLTFNYEKHGTTWRVRVD [R27N]: 1.91 kcal/mol
- TTEYTFTDDEEARRAIDELKKRGLTFRYEKHGTTWRVRVD [E17D]: 1.95 kcal/mol
- TTEYTFTDDIEARRAIEELKKRGLTFRYEKHGTTWRVRVD [E10I]: 2 kcal/mol
- TTEYTFTDDEEARRAIEELKKRGLTFRYEKHGTTWRVRTD [V39T]: 0.562 kcal/mol
- TTEYTFTDDEEARRAIEELKKRGLTFRYEKHGTTWNVRVD [R36N]: 1.43 kcal/mol
- TTEYTFTDDEEARRAIEELKKRGLTFRYEKHGGTWRVRVD [T33G]: 2.46 kcal/mol
- TTEYTFTDDEEARRAIEELKKRGLTFRYEIHGTTWRVRVD [K30I]: 1.86 kcal/mol
- TTEYTFTDDEEARRAIEELKKRGLTFRYEKHGTTWRVRVE [D40E]: 2.31 kcal/mol
- TTEYTFTDDEEARRAIEELKKRGLTFRYEKHETTWRVRVD [G32E]: 1.35 kcal/mol
- TTEYTFTDDAEARRAIEELKKRGLTFRYEKHGTTWRVRVD [E10A]: 2.09 kcal/mol
- TTHYTFTDDEEARRAIEELKKRGLTFRYEKHGTTWRVRVD [E3H]: 1.73 kcal/mol
- TTEYTFTDDEEARRAIEELKKRKLTFRYEKHGTTWRVRVD [G23K]: 1.21 kcal/mol
- TIEYTFTDDEEARRAIEELKKRGLTFRYEKHGTTWRVRVD [T2I]: 2.5 kcal/mol
- TTEYTFTDDEEARRAIEELKKRGLTFRWEKHGTTWRVRVD [Y28W]: 2.2 kcal/mol
- TTEYTFTDDEEARRAVEELKKRGLTFRYEKHGTTWRVRVD [I16V]: 1.12 kcal/mol
- TTEYTFTDDEEARRAIEELKKRGLTFRYIKHGTTWRVRVD [E29I]: 2.13 kcal/mol
- TTESTFTDDEEARRAIEELKKRGLTFRYEKHGTTWRVRVD [Y4S]: 0.036 kcal/mol
- TTEQTFTDDEEARRAIEELKKRGLTFRYEKHGTTWRVRVD [Y4Q]: 0.601 kcal/mol
- TTEYTFTDDEEARRAIEELKKRGLRFRYEKHGTTWRVRVD [T25R]: 2.27 kcal/mol
- TTEYTFTDDEEARRAIEELKKRGLTFRYEEHGTTWRVRVD [K30E]: -0.015 kcal/mol
- TTEYTFTDDEEARVAIEELKKRGLTFRYEKHGTTWRVRVD [R14V]: 1.78 kcal/mol
- TTEYTFTDDEEARRAIEELKKRGLTFGYEKHGTTWRVRVD [R27G]: 1.37 kcal/mol
- TTEYTFTDDEEARRAIEELKKRGLFFRYEKHGTTWRVRVD [T25F]: 2.15 kcal/mol
- TTEYTFTDDEEARRAIEELKKKGLTFRYEKHGTTWRVRVD [R22K]: 2.02 kcal/mol
- TTEYTYTDDEEARRAIEELKKRGLTFRYEKHGTTWRVRVD [F6Y]: 1.96 kcal/mol
- TTEYTFTDDEEARRAIEELKKRGITFRYEKHGTTWRVRVD [L24I]: 2.16 kcal/mol
- TTEYLFTDDEEARRAIEELKKRGLTFRYEKHGTTWRVRVD [T5L]: 2.25 kcal/mol
- TTEYTFTDDEEARRAIEELTKRGLTFRYEKHGTTWRVRVD [K20T]: 2.12 kcal/mol
- TTEYTFTDDEEARRAIEELKKRGLTFRYEKHGYTWRVRVD [T33Y]: 1.7 kcal/mol
- TTEYTFTDDEEARRAIEELKKRGLTFRYEKHGDTWRVRVD [T33D]: 2.54 kcal/mol
- TTEYTFTDDEEARRAIEALKKRGLTFRYEKHGTTWRVRVD [E18A]: 2.01 kcal/mol
- TTEYTFTDDEEAYRAIEELKKRGLTFRYEKHGTTWRVRVD [R13Y]: 2.2 kcal/mol
- TTEYTFTDDEEARRAIEELKKRGLTFRYTKHGTTWRVRVD [E29T]: 2.21 kcal/mol
- TTEYTFTDDEEARRAIQELKKRGLTFRYEKHGTTWRVRVD [E17Q]: 2.04 kcal/mol
- TTEYTFTDDEEARRAIEELKKEGLTFRYEKHGTTWRVRVD [R22E]: 1.35 kcal/mol
- TTEYTFTDDEEARSAIEELKKRGLTFRYEKHGTTWRVRVD [R14S]: 1.75 kcal/mol
- TTEYTFTDDEEARRAIEELKKRGLTFRLEKHGTTWRVRVD [Y28L]: 2.15 kcal/mol
- TTEYTFTDDEEARRAIEELKKRGLTFRYEKHGTTWHVRVD [R36H]: 2.44 kcal/mol
- TTEYTFTDMEEARRAIEELKKRGLTFRYEKHGTTWRVRVD [D9M]: 1.83 kcal/mol
- TTEYTFTDDEEARRAIEELKKRGLTFRYEKHGTTWRVRVH [D40H]: 2.19 kcal/mol
- TTEYTFTDDEEARRAIEELKKRGLTFRYGKHGTTWRVRVD [E29G]: 1.04 kcal/mol
- TTEYTFTDDEEARRAIEELKKRGLTFRYEKHGTEWRVRVD [T34E]: 2.07 kcal/mol
- TTEYTFTDDEEARIAIEELKKRGLTFRYEKHGTTWRVRVD [R14I]: 1.93 kcal/mol
- TTEYTFTDDEEARRAIHELKKRGLTFRYEKHGTTWRVRVD [E17H]: 1.88 kcal/mol
- TTEYTFTDDEEARRAIEELKKRGLTFRYEKHGSTWRVRVD [T33S]: 2.19 kcal/mol
- TTEYTFTDDEEARRAIEELKKRGGTFRYEKHGTTWRVRVD [L24G]: 0.321 kcal/mol
- TTEMTFTDDEEARRAIEELKKRGLTFRYEKHGTTWRVRVD [Y4M]: 1.79 kcal/mol
- TTEYTFSDDEEARRAIEELKKRGLTFRYEKHGTTWRVRVD [T7S]: 1.75 kcal/mol
- TTEYTFTDDEEARRAIEELKKRGLTFRYEKHGTTWKVRVD [R36K]: 2.35 kcal/mol
